- test.target: T1, human amylin-3(a) receptor (human, UniProt P30988 25-474; O60896 24-148)
- T1 sequence (looked up) 1: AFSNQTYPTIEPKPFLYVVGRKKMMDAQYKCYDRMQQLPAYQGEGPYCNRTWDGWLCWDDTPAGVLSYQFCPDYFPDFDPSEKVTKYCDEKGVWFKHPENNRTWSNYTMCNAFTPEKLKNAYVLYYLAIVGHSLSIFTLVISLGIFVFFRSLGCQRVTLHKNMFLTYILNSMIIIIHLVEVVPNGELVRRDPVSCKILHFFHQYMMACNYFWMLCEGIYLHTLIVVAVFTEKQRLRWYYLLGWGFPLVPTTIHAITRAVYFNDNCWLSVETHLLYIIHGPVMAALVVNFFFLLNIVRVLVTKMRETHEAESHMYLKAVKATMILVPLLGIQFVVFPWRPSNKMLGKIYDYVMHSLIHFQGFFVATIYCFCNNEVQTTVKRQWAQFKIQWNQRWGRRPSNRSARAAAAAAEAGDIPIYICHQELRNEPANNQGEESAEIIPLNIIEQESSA
- T1 sequence (looked up) 2: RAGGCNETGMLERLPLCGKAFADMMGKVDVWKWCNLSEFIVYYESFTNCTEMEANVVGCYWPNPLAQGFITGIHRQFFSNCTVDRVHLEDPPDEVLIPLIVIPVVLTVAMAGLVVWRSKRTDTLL
- test: cell-based or functional assay
Numbered stars: 1 amine (or outer) side, 2 acyl side, 3 side chain; on linkers, the order of the positions; unused ones are H or OH. Square brackets hold non-standard residues; d marks the D form. Side chains are listed from the residue outwards. * marks the point of attachment. Chem. 22 = C20 diacid gamma-Glu, O=C(O)CCCCCCCCCCCCCCCCCCC(=O)N[C@@H](CCC(=O)*)C(=O)O; C20 diacid = O=C(O)CCCCCCCCCCCCCCCCCCC(=O)*; C18 diacid = O=C(O)CCCCCCCCCCCCCCCCC(=O)*; γGlu = O=C(O)[C@H](CCC(=O)[*:2])N[*:1]; Chem. 28 = not defined here; AEEA = NCCOCCOCC(=O)O; Aib = CC(C)(N)C(=O)O
For each entry below, report its hAMYR3 Potency, no HSA, EC50 [pM] value.
Provide a numeric answer, followed by its unit.

What hAMYR3 Potency, no HSA, EC50 [pM] value was documented for this binder, Compound 70 (peptide) peptide: H[Aib]HGTFTSDYSILLEEQAAREFIEWLLAGGPSRGAPPPSGGGEASELSTAALGRLSAELHK([AEEA-AEEA-γGlu-C18 diacid])LATLPRTETGSGSP-NH2 ?
4.53 pM

Please give the result for Compound 41 (peptide) peptide: Y[Aib]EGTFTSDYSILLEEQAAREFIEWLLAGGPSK(Chem. 22)GAPPPSGGGEASELSTAALGRLSAELHRLADLPRTETGSGSP-NH2 too.
6.72 pM

Compound 96 (peptide) peptide: Y[Aib]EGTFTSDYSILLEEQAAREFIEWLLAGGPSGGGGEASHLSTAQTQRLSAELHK([AEEA-AEEA-γGlu-C20 diacid])LATLPRTETGSGSP-NH2 ?
3.73 pM

Next up: Compound 24 (reading uncertain) peptide: Y[Aib]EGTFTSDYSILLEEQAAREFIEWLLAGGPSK(Chem. 28)GALAQTLFVNQASELSTAALGRLSAELHELATLPRTETGSGSP-NH2
4.24 pM
